Would you mind telling me the reported pIC50 of each entry?
Biological target: 5-hydroxytryptamine (5-HT1A) receptor (Bos taurus, UniProt F6Q2H9)
Construct: bovine brain homogenate; from tissue; host or cells: bovine brain homogenate
Sequence (F6Q2H9 1-422): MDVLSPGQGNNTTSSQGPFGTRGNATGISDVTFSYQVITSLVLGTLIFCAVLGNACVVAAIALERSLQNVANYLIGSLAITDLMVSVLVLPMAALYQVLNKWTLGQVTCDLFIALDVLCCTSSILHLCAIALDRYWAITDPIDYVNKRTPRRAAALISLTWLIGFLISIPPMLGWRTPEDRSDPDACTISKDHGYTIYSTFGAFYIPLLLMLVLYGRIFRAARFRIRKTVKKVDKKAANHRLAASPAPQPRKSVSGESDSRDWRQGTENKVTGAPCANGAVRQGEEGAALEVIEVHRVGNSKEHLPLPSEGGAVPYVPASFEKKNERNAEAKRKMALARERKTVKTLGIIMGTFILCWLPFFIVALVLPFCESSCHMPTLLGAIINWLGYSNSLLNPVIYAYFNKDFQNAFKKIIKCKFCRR
Assay: Inhibition of 8-OH-DPAT binding in a bovine brain homogenate (5-HT1A binding)
Note on pIC50: it is the negative log10 of concentration, concentration in mol/L.

For this compound ( C=CCN(CC=C)C1CCc2ccccc2C1.Cl (racemic) [Example 21 Compound 6, hydrochloride] ), measured pIC50 is 7.29

pIC50 for C=CCNC1CCc2cccc(O)c2C1.Cl (stereo not shown) [Example 19 Compound 2, hydrochloride] is 8.46

The reported value for C=CCN(C)C1CCc2cccc(OC)c2C1.Cl (stereo not shown) [Example 15 Compound 12, hydrochloride] in terms of pIC50 is 8.10

Given item C=CCNC1CCc2cccc(OC)c2C1.Cl (stereo not shown) [Example 15 Compound 27, hydrochloride] , the value recorded as its pIC50 is 8.05
